These data points were gathered from patent US9334264B2.

IC50, NAMPT (Homo sapiens), per-entry values.
Give just the numeric value; nM need not be written.

Reference set (5 entries):
- compound: "COCCC(=O)N(CCCN1CCCC1)c1ncc(C(=O)NCCCn2ccnc2)s1"
  IC50 [nM]: 0.262
- compound: "CC(C)CCN(Cc1cccc(Cl)c1)c1ncc(C(=O)NCCCn2ccnc2)s1"
  IC50 [nM]: 807
- compound: "COCCC(=O)N(Cc1ccc(OC)nc1)c1ncc(C(=O)NCCCn2ccnc2)s1"
  IC50 [nM]: 1.47
- compound: "COCCC(=O)N(Cc1cccnc1)c1ncc(C(=O)NCCCn2ccnc2)s1"
  IC50 [nM]: 4.31
- compound: "COCCN(C(=O)CCc1cccnc1)c1ncc(C(=O)NCCCn2ccnc2)s1"
  IC50 [nM]: 0.281

Q: State the recorded IC50 for this entry: CCN(CC)CCN(C(=O)CCOC)c1ncc(C(=O)NCCCn2ccnc2)s1
Result: 0.265

Q: // IC50 lookup, key: COCCC(=O)N(CCc1ccc(Cl)cn1)c1ncc(C(=O)NCCCn2ccnc2)s1
Result: 0.331

Q: GET /values?readout=IC50&item= CCOCC(O)CNC(=O)N(Cc1ccc(C#N)cc1)c1ncc(C(=O)NCCCn2ccnc2)s1 (centres unmarked)
Result: 13.7

Q: Item under review: CC(C)NC(=O)N(Cc1ccc(F)cc1)c1ncc(C(=O)NCCCn2ccnc2)s1 . Reported IC50?
Result: 2.2

Q: Quick one: IC50 for CCN1CC(CN(C(=O)CCOC)c2ncc(C(=O)NCCCn3ccnc3)s2)CC1=O (centres unmarked) ?
Result: 0.755

Q: Tell me the measured IC50 of CC(C)CCN(C(=O)CC1CCOCC1)c1ncc(C(=O)NCCCn2ccnc2)s1 , please.
Result: 0.518

Q: Data request, read-out IC50, for O=C(NCCCn1ccnc1)c1cnc(N(Cc2ccc(F)cc2)Cc2c(Cl)ccc3c2OCO3)s1
Result: 338

Q: Looking for the measured IC50 of O=C(NCCCn1ccnc1)c1cnc(N(Cc2ccc(F)cc2)C(=O)NC2CCCOC2)s1 (centres unmarked) , can you help?
Result: 0.868

Q: Could you share which IC50 value was measured for N#Cc1ccc(CN(C(=O)NCCC(N)=O)c2ncc(C(=O)NCCCn3ccnc3)s2)cc1 ?
Result: 22.3

Q: Item COCCN(C(=O)CCc1ccc(F)cc1)c1ncc(C(=O)NCCCn2ccnc2)s1 has what recorded IC50?
Result: 0.264

Q: Report IC50 for N#Cc1ccc(CCN(C(=O)CC2CCOC2)c2ncc(C(=O)NCCCn3ccnc3)s2)cc1 (centres unmarked) please.
Result: 0.881

Q: I have this compound here, O=C(NCCCn1ccnc1)c1cnc(N(Cc2ccc(F)cc2)C(=O)NC2CCOC2)s1 (centres unmarked) , and I need its recorded IC50.
Result: 0.543
